biological target: Cytochrome P450 2C9 (Homo sapiens, UniProt P11712); assay: Inhibition of human recombinant CYP2C9; type: ADME
Sequence (P11712 whole entry): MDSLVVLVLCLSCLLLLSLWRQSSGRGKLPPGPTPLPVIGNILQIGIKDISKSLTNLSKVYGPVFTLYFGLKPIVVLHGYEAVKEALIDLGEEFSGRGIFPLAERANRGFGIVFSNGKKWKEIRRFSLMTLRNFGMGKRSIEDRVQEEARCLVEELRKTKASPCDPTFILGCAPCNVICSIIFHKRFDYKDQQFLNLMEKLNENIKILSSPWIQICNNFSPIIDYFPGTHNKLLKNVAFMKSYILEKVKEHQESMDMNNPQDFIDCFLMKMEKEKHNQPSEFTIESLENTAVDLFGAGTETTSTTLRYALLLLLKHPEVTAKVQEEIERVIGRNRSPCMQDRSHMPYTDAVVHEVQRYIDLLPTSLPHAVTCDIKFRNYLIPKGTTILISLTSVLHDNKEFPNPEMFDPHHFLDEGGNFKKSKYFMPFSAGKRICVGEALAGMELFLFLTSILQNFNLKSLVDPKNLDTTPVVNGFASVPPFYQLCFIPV
metric_name: IC50

IC50 reading for Cc1cc(OCCN2CCOCC2)nn1-c1ccc2ccccc2c1 : > 10 µM

====

We begin with a simple list: items and their reported log10 Ki.
target: Sigma non-opioid intracellular receptor 1 (Homo sapiens, UniProt Q99720); experiment: biochemical
Sequence (Q99720 whole entry): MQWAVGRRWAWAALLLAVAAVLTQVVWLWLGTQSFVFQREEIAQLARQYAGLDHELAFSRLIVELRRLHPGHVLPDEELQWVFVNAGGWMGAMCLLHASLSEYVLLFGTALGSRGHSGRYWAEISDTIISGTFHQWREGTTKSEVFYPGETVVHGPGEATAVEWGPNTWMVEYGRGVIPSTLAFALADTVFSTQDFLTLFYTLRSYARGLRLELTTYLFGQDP
Description: Displacement of [3H](+)pentazocine from human sigma 1 receptor transfected in HEK293 cell membranes after 120 mins by scintillation counter
Please be aware that the numbers have been log10-transformed from Ki in nM.

CC(C)c1cc(OCCN2CCOCC2)nn1-c1ccc(Cl)c(Cl)c1 2.24
CN1CCN(CCCOc2ccn(-c3ccc(Cl)c(Cl)c3)n2)CC1 1.22
Cc1cc(OCCn2ccnc2)nn1-c1ccc(Cl)c(Cl)c1 2.47
Cc1cc(OCCCCN2CCCC2)nn1-c1ccc(Cl)c(Cl)c1 0.84

log10 Ki reading for CC1CCN(CCOc2ccn(-c3ccc(Cl)c(Cl)c3)n2)CC1 : 0.93

log10 Ki reading for CC(=O)c1c(OCCN2CCOCC2)nn(-c2ccc(Cl)c(Cl)c2)c1C : 2.87

====

test: AUC in CD1 mouse at 10 mg/kg, po; assay type: ADME, organism-based; set-up: dose 10 mg/kg, route oral; details: plasma
metric_name: AUC (ng·h/mL)
# value in ng·h/mL; strip the unit string

AUC reading for Cc1cc(OCCN2CCOCC2)nn1-c1ccc2ccccc2c1 : 958

====

molecular target: Cytochrome P450 2D6 (Homo sapiens, UniProt P10635); experiment: Inhibition of human recombinant CYP2D6; format: ADME
Sequence (P10635 whole entry): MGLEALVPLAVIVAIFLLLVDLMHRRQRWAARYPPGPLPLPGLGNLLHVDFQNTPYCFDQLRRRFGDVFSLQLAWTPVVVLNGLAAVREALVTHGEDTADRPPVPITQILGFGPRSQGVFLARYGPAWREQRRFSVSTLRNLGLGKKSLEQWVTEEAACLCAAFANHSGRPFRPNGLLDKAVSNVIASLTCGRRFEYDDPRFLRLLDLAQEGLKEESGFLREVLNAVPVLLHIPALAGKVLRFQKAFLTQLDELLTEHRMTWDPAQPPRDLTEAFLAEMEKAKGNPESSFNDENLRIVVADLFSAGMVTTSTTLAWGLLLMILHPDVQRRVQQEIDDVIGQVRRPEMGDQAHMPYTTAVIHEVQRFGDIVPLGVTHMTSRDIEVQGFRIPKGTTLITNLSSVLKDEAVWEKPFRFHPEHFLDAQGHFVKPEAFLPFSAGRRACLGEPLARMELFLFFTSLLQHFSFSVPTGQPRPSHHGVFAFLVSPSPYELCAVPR
pIC50: −log10 of the molar value.
metric_name: pIC50

pIC50 reading for Cc1cc(OCCN2CCOCC2)nn1-c1ccc2ccccc2c1 : < 5.00

====

biological target: Cytochrome P450 2D6 (Homo sapiens); experiment: Inhibition of CYP2D6 in human liver microsomes; format: ADME, Microsome
metric_name: IC50

IC50 reading for Cc1cc(OCCN2CCOCC2)nn1-c1ccc2ccccc2c1 : > 10 µM

====

assay: Apparent permeability across human Caco2 cells at 10 uM after 2 hrs; type: ADME, cell-based; conditions: Caco-2
metric_name: Papp at 2 h, 10 µM (×10⁻⁶ cm/s)
# value in ×10⁻⁶ cm/s; strip the unit string

Papp at 2 h, 10 µM reading for Cc1cc(OCCN2CCOCC2)nn1-c1ccc2ccccc2c1 : 37

====

We begin with a simple list: items and their reported pKi.
assay: Displacement of [3H]di-o-tolylguanidine from sigma 2 receptor in guinea pig brain membranes after 120 mins by scintillation counter; format: cell membranes, Cavia porcellus, Membrane
Scale: negative log10 of molar concentration, which is what pKi denotes.

Some compounds with recorded pKi:
compound_smiles	recorded_result
Cc1cc(OCCN2CCCC2)nn1-c1ccc(Cl)c(Cl)c1	6.32
Clc1ccc(-n2ccc(OCCCN3CCCCC3)n2)cc1Cl	7.43
Clc1ccc(-n2ccc(OCCCCN3CCOCC3)n2)cc1Cl	6.08
Clc1ccc(-n2ccc(OCCN3CCCC3)n2)cc1Cl	7.63
Cc1cc(OCCN2CCC(n3cnc4cccnc43)CC2)nn1-c1ccc(Cl)c(Cl)c1	6.36

pKi reading for Cc1cc(OCCCCN2CCCC2)nn1-c1ccc(Cl)c(Cl)c1 : 7.90

pKi reading for C[C@@H]1CN(CCCCOc2ccn(-c3ccc(Cl)c(Cl)c3)n2)C[C@H](C)O1 : 6.82

pKi reading for Cc1cc(OCCN2CCCCCC2)nn1-c1ccc(Cl)c(Cl)c1 : 7.20

pKi reading for Cc1cc(OCCCCN2CCOCC2)nn1-c1ccc(Cl)c(Cl)c1 : 6.61

pKi reading for Cc1cc(OCCCCN2CCCCC2)nn1-c1ccc(Cl)c(Cl)c1 : 7.32

pKi reading for Clc1ccc(-n2ccc(NCCN3CCOCC3)n2)cc1Cl : 6.25

pKi reading for Cc1cc(OCCN2CCCCC2)nn1-c1ccc2ccccc2c1 : 7.07

====

test: Binding affinity to rat sigma 2 receptor
metric_name: Ki (µM)
# value in µM; strip the unit string

Ki reading for Cc1cc(OCCN2CCOCC2)nn1-c1ccc2ccccc2c1 : 9.3

====

We begin with a simple list: items and their reported microsomal CLint at 10 µM.
test: Intrinsic clearance in human liver microsomes assessed as per mg of protein at 10 uM; format: ADME, Microsome; conditions: read-out: CLH
# value in µL/min/mg; strip the unit string

Some molecules with recorded microsomal CLint at 10 µM:
Cc1cc(OCCN2CCOCC2)nn1-c1ccc2ccccc2c1 3
Cc1cc(OCCN2CCOCC2)nn1-c1ccc(Cl)cc1Cl 25
Cc1cc(OCCN2CCOCC2)nn1-c1ccc(Cl)c(Cl)c1 12
CC(=O)C1CCN(CCOc2ccn(-c3ccc(Cl)c(Cl)c3)n2)CC1 7
c1ccc2cc(-n3ccc(OCCN4CCOCC4)n3)ccc2c1 6

microsomal CLint at 10 µM reading for CCOC(=O)N1CCN(CCOc2cc(C)n(-c3ccc(Cl)c(Cl)c3)n2)CC1 : 26

====

target: UniProtKB P10632; experiment: Inhibition of CYP2C8 in human liver microsomes; format: ADME, Microsome
metric_name: IC50

Value sought: IC50, system UniProtKB P10632, item Cc1cc(OCCN2CCOCC2)nn1-c1ccc2ccccc2c1 . Result: > 10 µM

====

We begin with a simple list: items and their reported pKi.
target: Sigma non-opioid intracellular receptor 1 (Homo sapiens, UniProt Q99720); assay: biochemical
Scale: negative log10 of molar concentration, which is what pKi denotes.

Some compounds with recorded pKi:
compound	pKi
Cc1c(OCCN2CCOCC2)nn(-c2ccc(Cl)c(Cl)c2)c1C	8.03
Clc1ccc(-n2ccc(NCCN3CCCCC3)n2)cc1Cl	8.02
Cc1cc(OCCN2CCC(C)CC2)nn1-c1ccc(Cl)c(Cl)c1	8.08
CN(CCCCOc1ccn(-c2ccc(Cl)c(Cl)c2)n1)Cc1ccccc1	7.62
Cc1cc(OCCCCN2CCOCC2)nn1-c1ccc(Cl)c(Cl)c1	7.88

pKi reading for CC(=O)C1CCN(CCOc2ccn(-c3ccc(Cl)c(Cl)c3)n2)CC1 : 8.14

pKi reading for C[C@@H]1CN(CCCCOc2ccn(-c3ccc(Cl)c(Cl)c3)n2)C[C@H](C)O1 : 7.83

pKi reading for Cc1cc(OCCN2CCOCC2)nn1-c1cccc(Cl)c1 : 6.74

pKi reading for OC(COc1ccn(-c2ccc(Cl)c(Cl)c2)n1)CN1CCOCC1 (configuration not stated) : 6.89

pKi reading for Cc1cc(OCCCN2CCN(C)CC2)nn1-c1ccc(Cl)c(Cl)c1 : 7.88

====

target: Cytochrome P450 2C9 (Homo sapiens, UniProt P11712); assay: Inhibition of CYP2C9 in human liver microsomes; type: ADME, Microsome
metric_name: IC50

Value sought: IC50, system Cytochrome P450 2C9 (Homo sapiens, UniProt P11712), item Cc1cc(OCCN2CCOCC2)nn1-c1ccc2ccccc2c1 . Result: > 10 µM

====

target: Cytochrome P450 2E1 (Homo sapiens, UniProt P05181); assay: Inhibition of human recombinant CYP2E1; format: ADME
Sequence (P05181 whole entry): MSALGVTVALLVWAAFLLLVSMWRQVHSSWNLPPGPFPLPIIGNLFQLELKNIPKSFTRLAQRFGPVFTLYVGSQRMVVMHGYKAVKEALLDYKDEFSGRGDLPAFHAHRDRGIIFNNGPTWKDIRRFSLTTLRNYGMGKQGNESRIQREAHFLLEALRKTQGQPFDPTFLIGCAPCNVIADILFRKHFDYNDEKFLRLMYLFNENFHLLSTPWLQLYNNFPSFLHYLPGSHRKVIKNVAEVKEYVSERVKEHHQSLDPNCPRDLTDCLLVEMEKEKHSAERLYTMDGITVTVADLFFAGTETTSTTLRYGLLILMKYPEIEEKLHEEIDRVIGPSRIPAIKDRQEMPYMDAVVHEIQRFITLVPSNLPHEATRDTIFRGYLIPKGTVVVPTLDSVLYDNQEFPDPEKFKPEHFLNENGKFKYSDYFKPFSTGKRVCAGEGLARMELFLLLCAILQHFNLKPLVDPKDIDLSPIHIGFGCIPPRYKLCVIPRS
metric_name: IC50

IC50 reading for Cc1cc(OCCN2CCOCC2)nn1-c1ccc2ccccc2c1 : > 10 µM

====

assay: Displacement of [3H]di-o-tolylguanidine from sigma 2 receptor in guinea pig brain membranes after 120 mins by scintillation counter; format: cell membranes, Cavia porcellus, Membrane
Label scheme for Ki: bottom bin = under 60 nM, middle bin = from 60 nM up to 400 nM, top bin = 400 nM and over

CC1CCN(CCOc2ccn(-c3ccc(Cl)c(Cl)c3)n2)CC1 bottom bin
Cc1cc(OCCCCN2CCOCC2)nn1-c1ccc2ccccc2c1 top bin

Category lookup for the compound CCN(CC)CCCCOc1cc(C)n(-c2ccc(Cl)c(Cl)c2)n1
bottom bin

Category lookup for the compound Cc1cc(OCCCN2CCCC2)nn1-c1ccc(Cl)c(Cl)c1
middle bin

Category lookup for the compound CCN(CC)CCOc1cc(C)n(-c2ccc(Cl)c(Cl)c2)n1
middle bin

Category lookup for the compound Clc1ccc(-n2ccc(OCCCCN3CCSCC3)n2)cc1Cl
middle bin

Category lookup for the compound Cc1cc(OCCN2C[C@@H](C)O[C@@H](C)C2)nn1-c1ccc2ccccc2c1
top bin

====

molecular target: Cytochrome P450 2C8 (Homo sapiens, UniProt P10632); assay: Inhibition of human recombinant CYP2C8; format: ADME
Sequence (P10632 whole entry): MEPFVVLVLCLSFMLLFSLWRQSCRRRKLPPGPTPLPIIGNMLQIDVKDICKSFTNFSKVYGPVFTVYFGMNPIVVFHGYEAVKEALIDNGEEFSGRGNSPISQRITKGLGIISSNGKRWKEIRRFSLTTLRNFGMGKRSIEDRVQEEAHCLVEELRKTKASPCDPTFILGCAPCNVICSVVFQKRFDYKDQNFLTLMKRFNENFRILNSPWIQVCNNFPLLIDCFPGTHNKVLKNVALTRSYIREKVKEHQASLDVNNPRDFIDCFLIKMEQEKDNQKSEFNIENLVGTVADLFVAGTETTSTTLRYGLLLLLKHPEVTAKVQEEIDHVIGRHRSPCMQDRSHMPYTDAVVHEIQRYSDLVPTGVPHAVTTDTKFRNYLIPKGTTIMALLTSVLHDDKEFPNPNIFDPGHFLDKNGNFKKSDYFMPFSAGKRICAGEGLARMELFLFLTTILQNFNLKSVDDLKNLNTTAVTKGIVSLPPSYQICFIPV
pIC50: −log10 of the molar value.
metric_name: pIC50

pIC50 reading for Cc1cc(OCCN2CCOCC2)nn1-c1ccc2ccccc2c1 : < 5.00

====

Let's go through some IC50 measurements on UniProtKB Q12809 together.
Sequence (Q12809 whole entry): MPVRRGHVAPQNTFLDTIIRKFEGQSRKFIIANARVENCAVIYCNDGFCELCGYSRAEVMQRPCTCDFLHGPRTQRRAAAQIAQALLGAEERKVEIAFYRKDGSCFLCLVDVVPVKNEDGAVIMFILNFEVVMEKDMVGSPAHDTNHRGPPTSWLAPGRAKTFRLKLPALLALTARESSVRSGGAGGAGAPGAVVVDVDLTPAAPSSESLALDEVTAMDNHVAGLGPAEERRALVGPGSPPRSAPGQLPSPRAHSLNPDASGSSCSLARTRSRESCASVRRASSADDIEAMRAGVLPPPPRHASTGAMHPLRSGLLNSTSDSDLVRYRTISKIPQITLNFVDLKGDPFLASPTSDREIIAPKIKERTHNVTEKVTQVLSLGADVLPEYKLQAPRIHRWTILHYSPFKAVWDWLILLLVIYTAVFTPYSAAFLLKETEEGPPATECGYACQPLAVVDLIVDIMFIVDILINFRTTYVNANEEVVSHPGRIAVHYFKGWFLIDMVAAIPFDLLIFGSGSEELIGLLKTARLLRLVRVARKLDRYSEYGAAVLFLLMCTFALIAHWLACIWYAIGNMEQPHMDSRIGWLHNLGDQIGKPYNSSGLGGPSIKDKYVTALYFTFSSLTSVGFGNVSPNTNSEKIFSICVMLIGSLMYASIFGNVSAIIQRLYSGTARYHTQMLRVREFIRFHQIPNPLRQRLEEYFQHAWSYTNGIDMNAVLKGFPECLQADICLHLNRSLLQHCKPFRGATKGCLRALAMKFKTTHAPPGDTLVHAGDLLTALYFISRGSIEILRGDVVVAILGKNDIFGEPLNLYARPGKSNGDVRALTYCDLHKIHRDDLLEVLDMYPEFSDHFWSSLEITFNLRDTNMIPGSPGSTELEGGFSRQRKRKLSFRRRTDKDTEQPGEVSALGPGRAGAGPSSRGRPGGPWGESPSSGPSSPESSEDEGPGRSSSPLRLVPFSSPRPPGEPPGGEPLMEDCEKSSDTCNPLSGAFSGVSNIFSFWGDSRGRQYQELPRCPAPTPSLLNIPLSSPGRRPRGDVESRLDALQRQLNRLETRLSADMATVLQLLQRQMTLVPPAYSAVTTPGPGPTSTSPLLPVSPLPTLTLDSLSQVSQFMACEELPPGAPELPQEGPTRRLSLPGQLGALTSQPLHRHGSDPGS
# value in µM; strip the unit string

Some compounds with recorded IC50:
CC(=O)C1CCN(CCOc2ccn(-c3ccc(Cl)c(Cl)c3)n2)CC1 4.5
Cc1cc(OCCN2C[C@@H](C)O[C@@H](C)C2)nn1-c1ccc2ccccc2c1 7.4

Now take the following compound into account.
Value sought: IC50, system UniProtKB Q12809, item Cc1cc(OCCN2CCN(C)CC2)nn1-c1ccc(Cl)c(Cl)c1 . Result: 7.4

Attribution: ChEMBL document CHEMBL2169838
